Data credit: patent US20050164951A1

biological target: mouse sEH (Mus musculus, UniProt P34914); construct: made in house; host or cells: baculovirus expression system; experiment: Inhibition of recombinant mouse sEH, IC50 assay with 4-nitrophenyl-trans-2,3-epoxy-3-phenylpropyl carbonate as substrate; assay type: biochemical; conditions: Table 4; 0.12 μM enzyme, 5 min preincubation, pH 7.4, 30° C.; means ± SD; read-out: IC50 (μM) Mouse sEH
Sequence (P34914 whole entry): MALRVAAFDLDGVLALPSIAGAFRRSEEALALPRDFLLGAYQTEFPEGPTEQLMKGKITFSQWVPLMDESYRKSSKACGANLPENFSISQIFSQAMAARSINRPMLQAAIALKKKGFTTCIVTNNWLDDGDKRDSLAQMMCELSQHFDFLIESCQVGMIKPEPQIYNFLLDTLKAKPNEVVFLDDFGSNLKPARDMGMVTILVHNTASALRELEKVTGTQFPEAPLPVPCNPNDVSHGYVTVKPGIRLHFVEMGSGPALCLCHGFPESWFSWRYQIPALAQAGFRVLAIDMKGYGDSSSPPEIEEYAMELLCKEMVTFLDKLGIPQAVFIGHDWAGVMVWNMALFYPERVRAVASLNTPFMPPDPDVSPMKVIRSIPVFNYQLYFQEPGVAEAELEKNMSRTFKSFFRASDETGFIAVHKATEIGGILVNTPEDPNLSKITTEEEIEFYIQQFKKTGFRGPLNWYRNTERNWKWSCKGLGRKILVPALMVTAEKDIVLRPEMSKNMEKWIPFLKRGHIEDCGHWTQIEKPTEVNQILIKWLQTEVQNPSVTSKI
Readout kind: IC50 (µM)
Answers are plain numbers, in µM.

Need IC50 for each of these compounds.
1. O=C(NCCCCCCCCCCCC(=O)OCc1ccccc1)NC12CC3CC(CC(C3)C1)C2 [Compound 804]
2. O=C(NCCCCCCCCCCCC(=O)OCC12CC3CC(CC(C3)C1)C2)NC12CC3CC(CC(C3)C1)C2 [Compound 786]

1. 0.07
2. 0.07

----------
Target: human sEH (Homo sapiens)
Construct: made in house; host or cells: baculovirus expression system
Sequence (P34913 1-555): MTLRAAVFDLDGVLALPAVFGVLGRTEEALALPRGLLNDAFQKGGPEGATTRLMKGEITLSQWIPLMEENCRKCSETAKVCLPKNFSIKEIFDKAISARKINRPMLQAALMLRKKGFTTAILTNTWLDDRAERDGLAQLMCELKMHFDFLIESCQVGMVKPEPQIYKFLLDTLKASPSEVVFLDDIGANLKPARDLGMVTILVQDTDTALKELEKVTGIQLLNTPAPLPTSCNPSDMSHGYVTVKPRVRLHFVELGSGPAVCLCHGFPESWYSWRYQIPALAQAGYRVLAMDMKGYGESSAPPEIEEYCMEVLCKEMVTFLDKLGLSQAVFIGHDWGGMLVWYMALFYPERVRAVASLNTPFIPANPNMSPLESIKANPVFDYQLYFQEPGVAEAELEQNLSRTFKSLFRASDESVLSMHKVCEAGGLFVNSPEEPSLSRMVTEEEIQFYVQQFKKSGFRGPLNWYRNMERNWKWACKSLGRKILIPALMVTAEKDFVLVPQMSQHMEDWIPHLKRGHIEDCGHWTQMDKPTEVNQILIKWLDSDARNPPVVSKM
Assay: Inhibition of recombinant human sEH, IC50 assay with 4-nitrophenyl-trans-2,3-epoxy-3-phenylpropyl carbonate as substrate
Type: biochemical
Details: read-out: IC50 (μM) Human sEH
Can you tell me IC50 for the items I'm about to list?
Give bare numbers, in µM.

INSERT INTO results (compound, readout_number) VALUES
  ('CCCCCOC(=O)C1CCCC(NC(=O)NC23CC4CC(CC(C4)C2)C3)C1 (centres unmarked) [Compound 861]', 0.1);

Next:
For the compound shown here, CCCCC(CC)OC(=O)C1CCCC(NC(=O)NC23CC4CC(CC(C4)C2)C3)C1 (centres unmarked) [Compound 904] , give the reported IC50.
0.1

----------
target: mouse sEH (Mus musculus); construct: made in house; host or cells: baculovirus expression system; test: Inhibition of recombinant mouse sEH, IC50 assay with 4-nitrophenyl-trans-2,3-epoxy-3-phenylpropyl carbonate as substrate; format: biochemical; conditions: Tables 17a and b; read-out: IC50 (μM) Mouse sEH
Readout kind: IC50 (µM)
Numbers only, in µM.

The examples below pair each entry with its known result.
INSERT INTO results (compound, unit_label, readout_number) VALUES
  ('O=C(CCCCc1ccccc1)NC1CCCCC1 [Compound 992]', 'µM', 0.05),
  ('O=C(NC12CC3CC(CC(C3)C1)C2)C(F)(F)C(F)(F)C(F)(F)C(F)(F)C(F)(F)C(F)(F)C(F)(F)C(F)(F)C(F)(F)C(F)(F)C(F)(F)F [Compound 903]', 'µM', 0.1),
  ('O=C(NCCCC(=O)OCc1ccccc1)NC12CC3CC(CC(C3)C1)C2 [Compound 945]', 'µM', 0.05),
  ('CCOCCOCCOC(=O)CCCNC(=O)NC12CC3CC(CC(C3)C1)C2 [Compound 1008]', 'µM', 0.05),
  ('CCCOCCCOCCCCCNC(=O)NC12CC3CC(CC(C3)C1)C2 [Compound 1005]', 'µM', 0.05);

The following compounds each have a reported value; give each one's IC50.
1. CCCCCOC(=O)CCCn1ccn(C23CC4CC(CC(C4)C2)C3)c1=O [Compound 958]
2. CCOC(=O)c1ccc(COC(=O)C2CCCC(NC(=O)NC34CC5CC(CC(C5)C3)C4)C2)cc1 (centres unmarked) [Compound 942]

[0.7, 0.05]

Query the reported IC50 for mouse sEH (Mus musculus); item: O=C(CC1CCCCC1)NCCc1ccccc1 [Compound 993]
2.1
